System tested: carbamoylated AChE (EC) (Homo sapiens)
Assay comment: Carbachol binding to carbamoylated AChE
Run parameters: KECM+S, maximum parameter range fit, iECKECS fixed at 8 mM

{"Molecule": "C[N+](C)(C)CCOC(N)=O [carbachol, carbamoylcholine chloride]", "Readout units": "µM", "Kd": 1660}

###

System tested: carbamoylated AChE (EC) (Homo sapiens, UniProt P22303)
Sequence (P22303 32-574 limits assumed): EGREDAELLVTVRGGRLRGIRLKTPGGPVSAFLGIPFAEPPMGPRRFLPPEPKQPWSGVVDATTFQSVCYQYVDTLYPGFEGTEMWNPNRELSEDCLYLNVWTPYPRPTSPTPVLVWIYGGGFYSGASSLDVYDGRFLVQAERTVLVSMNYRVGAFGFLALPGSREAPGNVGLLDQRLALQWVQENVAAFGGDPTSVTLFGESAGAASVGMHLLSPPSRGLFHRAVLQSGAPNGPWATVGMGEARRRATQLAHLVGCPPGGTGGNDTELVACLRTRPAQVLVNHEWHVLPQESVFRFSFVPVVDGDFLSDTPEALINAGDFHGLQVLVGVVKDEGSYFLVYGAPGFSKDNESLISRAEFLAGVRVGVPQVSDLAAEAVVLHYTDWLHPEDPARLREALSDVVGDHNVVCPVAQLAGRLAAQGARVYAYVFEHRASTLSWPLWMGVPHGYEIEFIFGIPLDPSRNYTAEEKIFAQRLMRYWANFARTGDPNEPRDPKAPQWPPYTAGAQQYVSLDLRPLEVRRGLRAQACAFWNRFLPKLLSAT
Assay comment: Carbachol binding to carbamoylated AChE
Run parameters: KECM+S, maximum parameter range fit, iEC fixed at 1e-6
Observed property: Kd (mM)

{"Compound": "C[N+](C)(C)CCOC(N)=O [carbachol, carbamoylcholine chloride]", "System tested": "carbamoylated AChE (EC) (Homo sapiens, UniProt P22303)", "Result value": 1.66}

###

System tested: carbamoylated AChE (EC) (Homo sapiens)
Assay comment: Carbachol binding to carbamoylated AChE
Run parameters: KECM, A-site in EC; iEC2 fixed at 0.90
Observed property: Kd (µM)

{"Compound": "C[N+](C)(C)CCOC(N)=O [carbachol, carbamoylcholine chloride]", "System tested": "carbamoylated AChE (EC) (Homo sapiens)", "Observed property": "Kd", "Readout units": "µM", "Result value": 1800}

###

System tested: carbamoylated AChE (EC) (Homo sapiens)
Assay comment: Carbachol binding to carbamoylated AChE
Run parameters: KECM+S, combined binding to A- and P-sites in EC; iEC2 fixed at 0.90

{"Compound": "C[N+](C)(C)CCOC(N)=O [carbachol, carbamoylcholine chloride]", "System tested": "carbamoylated AChE (EC) (Homo sapiens)", "Kd, µM": 1700}

###

System tested: carbamoylated AChE (EC) (Homo sapiens)
Assay comment: Carbachol binding to carbamoylated AChE
Run parameters: KECM, maximum parameter range fit, iEC fixed at 1e-6

{"Molecule": "C[N+](C)(C)CCOC(N)=O [carbachol, carbamoylcholine chloride]", "Kd": "1660 µM"}

###

System tested: carbamoylated AChE (EC) (Homo sapiens)
Assay comment: Carbachol binding to carbamoylated AChE
Run parameters: iECKECS, P-site in EC; iEC2 fixed at 0.90

{"Compound": "C[N+](C)(C)CCOC(N)=O [carbachol, carbamoylcholine chloride]", "Readout units": "mM", "Kd": 32}

###

System tested: carbamoylated AChE (EC) (Homo sapiens, UniProt P22303)
Assay comment: Carbachol binding to carbamoylated AChE
Run parameters: iECKECS, maximum parameter range fit, iEC fixed at 1e-6
pKd: −log10 of the molar value.

{"Compound": "C[N+](C)(C)CCOC(N)=O [carbachol, carbamoylcholine chloride]", "System tested": "carbamoylated AChE (EC) (Homo sapiens, UniProt P22303)", "pKd": 1.47}
